Test: Stability test in buffer (pH 7.4)
Type: physicochemical
Settings: phosphate buffer/acetonitrile 7:3; 60 minutes at 37°C, 100 mM potassium phosphate buffer (pH 7.4) and acetonitrile 7:3 (v/v), LC/MS; read-out: Buf. remaining rate (%/60min)
MEASURED PARAMETER: remaining at 1 h (%)
Answer with a number only, understood to be in %.

Past entries and their recorded results:
COc1cc(C(=O)OC(C)C)cc(Cl)c1OC(=O)CCCc1ccc(NC(=O)c2ccc(C)nc2-c2ccc(C(F)(F)F)cc2)c(C(=O)N(C)C)c1; 99
CN(C)C(=O)c1cc(CCC(=O)Oc2ccccc2)ccc1NC(=O)c1ccccc1-c1ccc(C(F)(F)F)cc1; 104
COc1cccc(COC(=O)c2ccc(OC(=O)CCCc3ccc(NC(=O)c4ccccc4-c4ccc(C(F)(F)F)cc4)c(C(=O)N(C)C)c3)cc2)c1; 104

QUERY: Please report remaining at 1 h for the following compound: COC(=O)c1ccc(-c2nc(C)ccc2C(=O)Nc2ccc(CCCC(=O)Oc3c(C)cc(C(=O)OC)cc3C(=O)OC)cc2C(=O)N(C)C)cc1
RESULT: 97

QUERY: Please report remaining at 1 h for the following compound: COC(=O)c1ccc(OC(=O)CCCc2ccc(NC(=O)c3ccncc3-c3ccc(C(F)(F)F)cc3)c(C(=O)N(C)C)c2)cc1
RESULT: 99

QUERY: Please report remaining at 1 h for the following compound: CN(C)C(=O)c1cc(CCCC(=O)Oc2ccc(C(=O)O)cc2)ccc1NC(=O)c1ccccc1-c1ccc(C(F)(F)F)cc1
RESULT: 101

====

Experiment: Metabolic stability test in liver S9
Format: in vitro ADME
Details: pH 7.4; unchanged form after 10 minutes at 37°C, human liver S9 2 mg protein/mL, LC/MS; read-out: Remaining rate in human liver S9 (%/10min)
MEASURED PARAMETER: remaining at 10 min (%)
Answer with a number only, understood to be in %.

QUERY: Please report remaining at 10 min for the following compound: CN(C)C(=O)c1cc(CCCC(=O)Oc2ccc(C(=O)OCc3ccsc3)cc2)ccc1NC(=O)c1ccccc1-c1ccc(C(F)(F)F)cc1 [Compound 1-99]
RESULT: 6

QUERY: Please report remaining at 10 min for the following compound: CC(C)OC(=O)COC(=O)c1ccc(OC(=O)CCCc2ccc(NC(=O)c3ccccc3-c3ccc(C(F)(F)F)cc3)c(C(=O)N(C)C)c2)cc1 [Compound 1-102]
RESULT: 0

QUERY: Please report remaining at 10 min for the following compound: COC(=O)c1cc(C)c(OC(=O)CCCc2ccc(NC(=O)c3ccc(C)nc3-c3ccc(C(F)(F)F)cc3)c(C(=O)N(C)C)c2)c(OC)c1 [Compound 1-46]
RESULT: 5

====

Test: Metabolic stability test in plasma
Format: in vitro ADME, human
Details: unchanged form after 10 minutes at 37°C in human plasma, LC/MS; read-out: Remaining rate in human plasma (%/10min)
Procedure: A sample dissolved in DMSO was added to plasma of human or animal species (mouse and hamster). The solutions were incubated at 37°C for 0, 10 and 60 minutes, and acetonitrile containing formic acid (final concentration: 0.1%) was added thereto. The solutions were centrifuged, and the concentration of the sample (unchanged form) in the supernatant was determined by high performance liquid chromatography/mass spectrometry (LC/MS). […]
Response field label: string, one of T (remaining at 10 min strictly below 40%) or F.

CCc1cc(C(=O)OC)cc(Cl)c1OC(=O)CCCc1ccc(NC(=O)c2ccc(C)nc2-c2ccc(C(F)(F)F)cc2)c(C(=O)N(C)C)c1; F
COC(=O)c1ccc(OC(=O)CCCc2ccc(NC(=O)c3ccc(C)nc3-c3ccc(C(F)(F)F)cc3)c(C(=O)N(C)C)c2)c(C(=O)OC)c1; T
COC(=O)c1ccc(OC(=O)CCCc2ccc(NC(=O)c3ccccc3-c3ccc(C(F)(F)F)cn3)c(C(=O)N(C)C)c2)cc1; T

QUERY: Is the reported remaining at 10 min for COC(=O)c1ccc(OC(=O)CCCc2ccc(NC(=O)c3ccccc3-c3ccc(C(F)(F)F)cc3)c(C(=O)N3CCCC3)c2)cc1 strictly below 40%?
RESULT: F

QUERY: Is the reported remaining at 10 min for CC(C)n1nnc(-c2ccc(OC(=O)CCCc3ccc(NC(=O)c4ccccc4-c4ccc(C(F)(F)F)cc4)c(C(=O)N(C)C)c3)cc2)n1 strictly below 40%?
RESULT: F

QUERY: Is the reported remaining at 10 min for CCCOC(=O)c1cc(Cl)c(OC(=O)CCCc2ccc(NC(=O)c3ccc(C)nc3-c3ccc(C(F)(F)F)cc3)c(C(=O)N(C)C)c2)c(OC)c1 strictly below 40%?
RESULT: T

====

Recorded remaining at 10 min, one value per entry.
Test: Metabolic stability test in plasma
Format: in vitro ADME, human
Conditions: unchanged form after 10 minutes at 37°C in human plasma, LC/MS; read-out: Remaining rate in human plasma (%/10min)
Answer with a number only, understood to be in %.

Past entries and their recorded results:
CN(C)C(=O)c1cc(CCCC(=O)Oc2ccc(C(=O)OCc3ccccn3)cc2)ccc1NC(=O)c1ccccc1-c1ccc(C(F)(F)F)cc1 [Compound 1-82]; 17
CC(C)OCCOC(=O)c1ccc(OC(=O)CCCc2ccc(NC(=O)c3ccccc3-c3ccc(C(F)(F)F)cc3)c(C(=O)N(C)C)c2)cc1 [Compound 1-76]; 50
CCOc1cc(C(=O)OC)cc(Cl)c1OC(=O)CCCc1ccc(NC(=O)c2ccc(C)nc2-c2ccc(C(F)(F)F)cc2)c(C(=O)N(C)C)c1 [Compound 1-40]; 0

QUERY: Please report remaining at 10 min for the following compound: CCOC(=O)c1cc(OC)c(OC(=O)CCCc2ccc(NC(=O)c3ccc(C)nc3-c3ccc(C(F)(F)F)cc3)c(C(=O)N(C)C)c2)c(OC)c1 [Compound 1-43]
RESULT: 13

QUERY: Please report remaining at 10 min for the following compound: CCc1cc(C(=O)OC)cc(C(=O)OC)c1OC(=O)CCCc1ccc(NC(=O)c2ccc(C)nc2-c2ccc(C(F)(F)F)cc2)c(C(=O)N(C)C)c1 [Compound 1-51]
RESULT: 23

QUERY: Please report remaining at 10 min for the following compound: Cc1ccc(C(=O)Nc2ccc(CCCC(=O)Oc3ccc(C(=O)OCc4ccccc4)cc3)cc2C(=O)N(C)C)c(-c2ccc(C(F)(F)F)cc2)n1 [Compound 1-80]
RESULT: 4

====

Experiment: Metabolic stability test in plasma
Format: in vitro ADME, human
Conditions: unchanged form after 10 minutes at 37°C in human plasma, LC/MS; read-out: Remaining rate in human plasma (%/10min)
Method: A sample dissolved in DMSO was added to plasma of human or animal species (mouse and hamster). The solutions were incubated at 37°C for 0, 10 and 60 minutes, and acetonitrile containing formic acid (final concentration: 0.1%) was added thereto. The solutions were centrifuged, and the concentration of the sample (unchanged form) in the supernatant was determined by high performance liquid chromatography/mass spectrometry (LC/MS). […]
Recorded remaining at 10 min, one value per entry.
Answer with a number only, understood to be in %.

Past entries and their recorded results:
CN(C)C(=O)c1cc(CC(=O)Oc2ccc(F)cc2)ccc1NC(=O)c1ccccc1-c1ccc(C(F)(F)F)cc1; 57
CN(C)C(=O)c1cc(CCCC(=O)Oc2ccc(-c3nnn(C)n3)cc2)ccc1NC(=O)c1ccccc1-c1ccc(C(F)(F)F)cc1; 82
COC(=O)c1cc(C(=O)OC(C)C)cc(C)c1OC(=O)CCCc1ccc(NC(=O)c2ccc(C)nc2-c2ccc(C(F)(F)F)cc2)c(C(=O)N(C)C)c1; 30
COC(=O)c1ccc(-c2nc(C)ccc2C(=O)Nc2ccc(CCCC(=O)Oc3c(Cl)cc(C(=O)OC)cc3OC)cc2C(=O)N(C)C)cc1; 0
CCOC(=O)c1cc(Cl)c(OC(=O)CCCc2ccc(NC(=O)c3ccc(C)nc3-c3ccc(C(F)(F)F)cc3)c(C(=O)N(C)C)c2)c(OC)c1; 0

Now look at this entry.
QUERY: Please report remaining at 10 min for the following molecule: COC(=O)c1ccc(-c2nc(C)ccc2C(=O)Nc2ccc(CCCC(=O)Oc3c(C)cc(C(=O)OC)cc3C(=O)OC)cc2C(=O)N(C)C)cc1
RESULT: 34

====

Recorded remaining at 10 min, one value per entry.
Assay: Metabolic stability test in liver S9
Assay type: in vitro ADME
Details: pH 7.4; unchanged form after 10 minutes at 37°C, human liver S9 2 mg protein/mL, LC/MS; read-out: Remaining rate in human liver S9 (%/10min)
Answer with a number only, understood to be in %.

Past entries and their recorded results:
COC(=O)c1ccc(OC(=O)CCCc2ccc(NC(=O)c3ccccc3-c3ccc(C(F)(F)F)cc3)c(C(=O)N(C)C)c2)c(C)c1; 3
COC(=O)c1cc(C)c(OC(=O)CCCc2ccc(NC(=O)c3ccc(C)nc3-c3ccc(C(F)(F)F)cc3)c(C(=O)N(C)C)c2)c(C)c1; 8
CN(C)C(=O)Cn1nnc(-c2ccc(OC(=O)CCCc3ccc(NC(=O)c4ccccc4-c4ccc(C(F)(F)F)cc4)c(C(=O)N(C)C)c3)cc2)n1; 3
COC(=O)c1cc(Cl)c(OC(=O)CCCc2ccc(NC(=O)c3ccc(C)nc3-c3ccc(C(F)(F)F)cc3)c(C(=O)N(C)C)c2)c(C(C)C)c1; 24
COC(=O)c1ccc(OC(=O)CCCc2ccc(NC(=O)c3ccccc3-c3ccc(C(F)(F)F)cc3)c(C(=O)N3CCOCC3)c2)cc1; 0

Now look at this entry.
QUERY: Please report remaining at 10 min for the following compound: COC(=O)c1ccc(OC(=O)CCCc2ccc(NC(=O)c3cccnc3-c3ccc(C(F)(F)F)cc3)c(C(=O)N(C)C)c2)cc1
RESULT: 0
